# Test system: thyroid hormone receptor (rat, GH3 cells)
# ASSAY EXPLANATION: qHTS assay to identify small molecule agonists of the thyroid receptor (TR) signaling pathway (AID 743066)
# RUN CONDITIONS: GH3.TRE-Luc cells, TR agonist luciferase, 24 h; series mostly up to 83.9 µM
Records with an inconclusive call do not appear. Activity calls are given as the source filed them. Calls come from the whole dose curve.
Possible outcomes: Y for active, N for inactive

MOLECULE | LABEL
O=C(O)CF | N
S=c1[nH]c2ccccc2[nH]1 | N
OCCOCCO | N
CC(C)COC(=O)c1ccccc1C(=O)OCC(C)C | N
O=NN1CCOCC1 | N
COc1ccc(C=O)cc1OC | N
CSc1nc(NC(C)C)nc(NC(C)C)n1 | N
C[N+](C)(C)CC(=O)[O-] | N
CC1=C(C(=O)Nc2ccccc2)SCCO1 | N
Nc1ccc2ccccc2c1 | N
O=C1Nc2ccc(Cl)cc2C(c2ccccc2)=NC1O (stereo unspecified) | N
O=C1CCCO1 | N
CC(C)(c1ccccc1)c1ccc(O)c(C(C)(C)c2ccccc2)c1 | Y
CCC(=O)Nc1ccc(Cl)c(Cl)c1 | N
Cc1cccc(N=Nc2ccc(N(C)C)cc2)c1 | N
COP(=S)(OC)Oc1ccc(S(=O)(=O)N(C)C)cc1 | N
ClC(Cl)=C(Cl)C(Cl)=C(Cl)Cl | N
NN=C(N)N | N
COP(=O)(NC(C)=O)SC (stereo unspecified) | N
CCC1(c2ccc(N)cc2)CCC(=O)NC1=O (stereo unspecified) | N
O=C1C(Cl)=C(Cl)C(=O)c2ccccc21 | N
O=[N+]([O-])/N=C1\NCCN1Cc1ccc(Cl)nc1 | N
Clc1cccc(Cl)c1 | N
O=[N+]([O-])c1ccc(Cl)c([N+](=O)[O-])c1 | N
O=S(=O)(O)C(F)(F)C(F)(F)C(F)(F)C(F)(F)C(F)(F)C(F)(F)C(F)(F)C(F)(F)F | N
Oc1ccc(Cl)cc1Cc1ccccc1 | N
CCNCC | N
CCOP(=O)(OCC)OCC | N
COC(=O)Nc1nc2ccccc2[nH]1 | N
CC(C)=CC1C(C(=O)OCN2C(=O)C3=C(CCCC3)C2=O)C1(C)C (stereo unspecified) | N
Cc1ccc(N=CN(C)C=Nc2ccc(C)cc2C)c(C)c1 | N

====

# ASSAY EXPLANATION: qHTS assay to identify small molecule agonists of the farnesoid-X-receptor (FXR) signaling pathway - cell viability counter screen (AID 743218); note: nearly all actives have a fitted effect of over 45% in size
# RUN CONDITIONS: FXR-bla HEK293T viability, CellTiter-Glo luminescence, 16 h; series mostly up to 62.6 µM
Records with an inconclusive call do not appear. Active and inactive are the calls of the source. The call rests on the fitted dose curve; in most records, active means well fitted cell-killing curve with a large enough effect in the repeat runs; inconclusive means weak or mixed curves, or effect the other way; inactive means no such curve, though single readings can be large or run the other way.

COMPOUND | outcome
CCC/C=N/O | inactive
CN(C)P(=O)(N(C)C)N(C)C | inactive
Cl | inactive
CC(C)(C#N)N=NC(C)(C)C#N | inactive
ClC(Cl)(Cl)c1ccccc1 | inactive
CN(C)c1nc(=O)n(C2CCCCC2)c(=O)n1C | inactive
ClC(Cl)(Cl)Br | inactive
ClC(Cl)=C(Cl)C(Cl)=C(Cl)Cl | inactive
CCOP(=O)(OCC)OCC | inactive
CCCCSP(=O)(SCCCC)SCCCC | inactive
Nc1ccc([N+](=O)[O-])cc1N | inactive
Cn1c(-c2ccccc2)cc(-c2ccccc2)[n+]1C | inactive
CCC(=O)Nc1ccc(Cl)c(Cl)c1 | inactive
Cc1cccc(N=Nc2ccc(N(C)C)cc2)c1 | inactive
CCCCCCCCCc1ccc(O)cc1 | inactive
O=C1Nc2ccc(Cl)cc2C(c2ccccc2)=NC1O (stereo unspecified) | inactive

Data provenance is PubChem BioAssay (Tox21).
